- Target: UniProtKB Q12797
- Sequence (Q12797 315-758): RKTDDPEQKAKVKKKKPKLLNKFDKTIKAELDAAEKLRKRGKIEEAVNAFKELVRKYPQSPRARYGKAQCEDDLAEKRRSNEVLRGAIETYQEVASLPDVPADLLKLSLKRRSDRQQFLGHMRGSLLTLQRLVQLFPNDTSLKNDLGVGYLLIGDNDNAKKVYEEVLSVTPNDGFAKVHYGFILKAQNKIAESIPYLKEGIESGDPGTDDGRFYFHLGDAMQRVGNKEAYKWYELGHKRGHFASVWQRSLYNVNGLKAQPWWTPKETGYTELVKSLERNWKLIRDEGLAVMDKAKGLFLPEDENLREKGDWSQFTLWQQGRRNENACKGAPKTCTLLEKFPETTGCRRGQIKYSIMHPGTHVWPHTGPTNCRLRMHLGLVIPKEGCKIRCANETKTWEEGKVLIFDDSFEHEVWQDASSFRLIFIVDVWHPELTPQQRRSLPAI
# note: exactly 2 µM is not below, so it is 0; use 1 for IC50 strictly under it

Input line: hey, is IC50 for O=C(O)c1cc(C(=O)O)c(NCc2ccccc2)cn1 [Compound 20a] lower than 2 µM or not?
Output line: 1

Input line: I wonder whether CC(Nc1cnc(C(=O)O)cc1C(=O)O)c1ccccc1 (stereo not shown) [Compound 20e] has IC50 below 2 µM. Can you tell?
Output line: 0

Input line: Dear colleague, could you confirm whether IC50 of O=C(O)c1cc(C(=O)O)c(NCC2CCCCC2)cn1 [Compound 20f] falls below 2 µM? Thanks.
Output line: 0

Input line: A record lists O=C(O)c1cc(C(=O)O)c(NCc2ccc(C(F)(F)F)cc2)cn1 [Compound 20g] . Is its IC50 below 2 µM?
Output line: 1

Input line: Dear reviewer, please state whether O=C(O)c1cc(C(=O)O)c(NCCc2ccccc2)cn1 [Compound 20b] has IC50 strictly beneath 2 µM.
Output line: 1

Input line: Confirm or reject: IC50 of COc1ccccc1CNc1cnc(C(=O)O)cc1C(=O)O [Compound 20i] lies strictly below 2 µM
Output line: 1

Input line: In the record for O=C(O)c1cc(C(=O)O)c(NCCCCc2ccccc2)cn1 [Compound 20d] , is IC50 less than 2 µM?
Output line: 1

Input line: I'd appreciate it if you could check whether O=C(O)c1cc(C(=O)O)c(NCCCc2ccccc2)cn1 [Compound 20c] has IC50 smaller than 2 µM.
Output line: 0

Input line: API: query returns whether the molecule falls strictly under 2 µM in IC50. Query: O=C(O)c1cc(C(=O)O)c(NCc2ccccc2C2CC2)cn1 [Compound 20j]
Output line: 0
